test-name: recombinant UMI read abundance after kanamycin selection (control-corrected) (log10(CPM+1)); higher = more efficient recombination; extreme values may be limits of the assay; sequences stand for … in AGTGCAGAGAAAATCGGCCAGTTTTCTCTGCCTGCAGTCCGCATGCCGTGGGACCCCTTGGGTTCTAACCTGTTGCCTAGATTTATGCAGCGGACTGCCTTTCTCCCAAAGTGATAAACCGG…AGGTTGGTTTCACT; site = the 11-nt donor;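 also: IS621 bridge recombinase in Escherichia coli cells against a fixed T5 target plasmid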

seq: TCGAAAACATGGACCGGTTTTCCCGGTAATCCGTATTTGCT (site GCGAAAACTAG)
recombinant UMI read abundance (log10): 0
--
seq: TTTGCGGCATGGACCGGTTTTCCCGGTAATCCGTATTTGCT (site TTCGCGGCTAG)
recombinant UMI read abundance (log10): 0
--
seq: GATTGGACATGGACCGGTTTTCCCGGTAATCCGTATTTGTC (site GATTGGACTGT)
recombinant UMI read abundance (log10): 0.172
--
seq: CGTAAAGCATGGACCGGTTTTCCCGGTAATCCGTATTTGAT (site CATAAAGCTAT)
recombinant UMI read abundance (log10): 0.355
--
seq: GAATGGCCATGGACCGGTTTTCCCGGTAATCCGTATTTGCG (site GAATGGCCTCG)
recombinant UMI read abundance (log10): 0.0153
--
seq: CCGTTAGCATGGACCGGTTTTCCCGGTAATCCGTATTTGTC (site CCGTTAGCTGA)
recombinant UMI read abundance (log10): 1.58
--
seq: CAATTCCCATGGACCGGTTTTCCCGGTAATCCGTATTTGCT (site CAATTTCCTAG)
recombinant UMI read abundance (log10): 0
--
seq: CTGGGAACATGGACCGGTTTTCCCGGTAATCCGTATTTGCA (site CTGGAAACTTG)
recombinant UMI read abundance (log10): 1.87
--
seq: TAGAATACATGGACCGGTTTTCCCGGTAATCCGTATTTGCG (site TAGAATACTTG)
recombinant UMI read abundance (log10): 0.239
--
seq: CCGAATCCATGGACCGGTTTTCCCGGTAATCCGTATTTGCT (site CCGAATCCTAG)
recombinant UMI read abundance (log10): 0.196
--
seq: CGCATAGCATGGACCGGTTTTCCCGGTAATCCGTATTTGTA (site CGCATAGCTTA)
recombinant UMI read abundance (log10): 2.51
--
seq: CAAGCGTCATGGACCGGTTTTCCCGGTAATCCGTATTTGTG (site CAAGCGCCTCA)
recombinant UMI read abundance (log10): 0.0275
--
seq: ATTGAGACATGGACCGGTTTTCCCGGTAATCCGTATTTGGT (site ATTGAGACTAA)
recombinant UMI read abundance (log10): 0.949
--
seq: TACACCGCATGGACCGGTTTTCCCGGTAATCCGTATTTGAG (site TACACCGCTCT)
recombinant UMI read abundance (log10): 0.702
--
seq: CCTAGTACATGGACCGGTTTTCCCGGTAATCCGTATTTGGC (site CCTAATACTGC)
recombinant UMI read abundance (log10): 0
--
seq: AATAGCCCATGGACCGGTTTTCCCGGTAATCCGTATTTGAC (site AATAGCCCTGT)
recombinant UMI read abundance (log10): 1.07
--
seq: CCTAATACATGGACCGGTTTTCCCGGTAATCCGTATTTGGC (site CCTAATACTGG)
recombinant UMI read abundance (log10): 0
--
seq: AATGTATCATGGACCGGTTTTCCCGGTAATCCGTATTTGAC (site AATGTGTCTGT)
recombinant UMI read abundance (log10): 0
